System: UACC-257
Method notes: NCI tumour cell line growth inhibition, 48 h
Active and inactive are the calls of the source. Rule as the data show it: active = GI50 up to about 1.1 µM and inactive = higher.
Field: GI50. Provide a value for each of the compounds that follow.

CCOc1ccccc1/N=N/c1c(-c2ccccc2)nn(C(=O)CC(=O)Nc2cccc(Cl)c2)c1-c1ccccc1 tested on UACC-257 gave GI50: 98.2 µM (inactive)

CN1CCC(O)(C(C)(C)C)CC1 tested on UACC-257 gave GI50: > 100 µM (inactive)

OCc1nnn2c1CCC2 tested on UACC-257 gave GI50: > 100 µM (inactive)

O=C(Nc1ccccc1[N+](=O)[O-])C(=O)C(C(=O)c1ccccc1-c1ccccc1)C1OC(=O)c2ccccc21 (stereo unspecified) tested on UACC-257 gave GI50: 16.6 µM (inactive)

CN1C(C(=O)Nc2ccccn2)=C(O)c2ccccc2S1(=O)=O tested on UACC-257 gave GI50: > 100 µM (inactive)

C[S+]([O-])c1cc(=O)c2ccccc2s1 (stereo unspecified) tested on UACC-257 gave GI50: 3.4 µM (inactive)

CN(C)CS/C(N)=N\C(O)C(Cl)(Cl)Cl (stereo unspecified) tested on UACC-257 gave GI50: > 100 µM (inactive)

CSc1cnc2ccccc2c1SC1CN(Cc2ccccc2)c2ccccc2C1=O (stereo unspecified) tested on UACC-257 gave GI50: > 100 µM (inactive)

Oc1c(-c2ccccc2)sc2ccccc12 tested on UACC-257 gave GI50: 25.2 µM (inactive)

COC(=O)C1(Cc2ccc3c(c2)CCC3)Cc2cc3c(cc2C1)CCC3 tested on UACC-257 gave GI50: 19.5 µM (inactive)

CN(C)CCCN1c2ccc3ccccc3c2Sc2cccc(Cl)c21 tested on UACC-257 gave GI50: 1.69 µM (inactive)

CC(=O)Nc1ccc(Nc2cc(O)nc(O)n2)cc1 tested on UACC-257 gave GI50: > 100 µM (inactive)

CCN(CC)c1c(N(CC)CC)c(=O)c1=O tested on UACC-257 gave GI50: 9.48 µM (inactive)

C#CCn1c(=O)c(Cl)cn(/C(=C/C(=O)OCC)C(=O)OCC)c1=O tested on UACC-257 gave GI50: 5.07 µM (inactive)

CC(C)[Si](OC12CCC(CC1O)CC2CO)(C(C)C)C(C)C (stereo unspecified) tested on UACC-257 gave GI50: 13.7 µM (inactive)

COC1OC(Cn2c(C)nc(Br)c2Br)C(O)C(O)C1O (stereo unspecified) tested on UACC-257 gave GI50: > 100 µM (inactive)

CN1C(=O)C(O)CC1c1ccccc1C(F)(F)F (stereo unspecified) tested on UACC-257 gave GI50: > 100 µM (inactive)

O=C1Nc2nccnc2C(=O)N2CCC[C@@H]12 tested on UACC-257 gave GI50: > 100 µM (inactive)

COc1ccc2oc3c(OC)c(OC)c(OC)cc3c(=O)c2c1 tested on UACC-257 gave GI50: > 100 µM (inactive)

Clc1ccc2c(Cl)ncnc2c1I tested on UACC-257 gave GI50: > 100 µM (inactive)

CC(=O)Oc1c2ccsc2c(OC(C)=O)c2ccsc12 tested on UACC-257 gave GI50: 0.189 µM (active)
